Quick list: GI50 per entry.
Test system: RPMI-8226
TEST: NCI tumour cell line growth inhibition, 48 h
The source made the active and inactive calls. Cut-off read from the data, not from the text of the source: active = GI50 up to about 1.1 µM and inactive = higher.

{"COMPOUND": "CCC/N=C/c1c(O)c(O)c(C(C)C)c2cc(C)c(-c3c(C)cc4c(C(C)C)c(O)c(O)c(/C=N/CCC)c4c3O)c(O)c12", "GI50": "9.16 µM (inactive)"}
{"COMPOUND": "COc1ccc(/C(Cl)=C/c2ccc(Cl)c(Cl)c2)cc1", "GI50": "18.2 µM (inactive)"}
{"COMPOUND": "CCC(CO)Nc1nc2c(c(=O)n(C)c(=O)n2C)n1CCO (stereo not given)", "GI50": "> 100 µM (inactive)"}
{"COMPOUND": "Cc1ccc(C[P+]2(c3ccccc3)CCCCC2)cc1.[O-][Cl+3]([O-])([O-])[O-]", "GI50": "7.43 µM (inactive)"}
{"COMPOUND": "Cc1ccccc1SC(/C=C/NNC1=NN=C(c2ccccc2)C(c2ccccc2)N1)c1ccccc1 (stereo not given)", "GI50": "27.5 µM (inactive)"}
